- Test system: SHP2 enzyme (catalytic domain, amino acid sequence 224-528) (Homo sapiens, UniProt Q06124)
- Construct: purchased GenScript
- Sequence (Q06124 224-528): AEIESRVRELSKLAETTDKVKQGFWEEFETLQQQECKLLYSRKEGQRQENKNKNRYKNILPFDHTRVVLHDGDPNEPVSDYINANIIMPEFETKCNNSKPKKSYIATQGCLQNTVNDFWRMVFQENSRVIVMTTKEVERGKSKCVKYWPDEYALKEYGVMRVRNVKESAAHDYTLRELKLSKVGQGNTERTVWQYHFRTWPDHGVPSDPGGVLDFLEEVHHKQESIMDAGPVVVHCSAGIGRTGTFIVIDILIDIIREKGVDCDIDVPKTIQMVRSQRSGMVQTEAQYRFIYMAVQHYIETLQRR
- Assay notes: SHP2 enzyme inhibition assay (DiFMUP substrate, fluorescence)
- Assay type: biochemical
- Conditions: SHP2 catalytic domain, DiFMUP substrate, 30 min pre-incubation; read-out: S HP2 I C50
Readout name: log10 IC50 (log10 of the value in nM)
Friendly reminder: values = log10 of IC50, unit nM.

As a guide, the following entries are already answered.
Request: I'd like to know its log10 IC50. The molecule in question is CC1CN(c2ccc(NC(=O)C(=O)Nc3ccc(-c4cc5cc(F)c(-c6nnn[nH]6)cc5n4C4CCC4)cc3)cc2)CC1CO (stereo not shown)
Response: 1.87

Request: I'd like to know its log10 IC50. The molecule in question is CC1(n2c(-c3ccc(NC(=O)C(=O)Nc4ccc(N5CC[C@H](CO)C5)cc4)cc3)cc3cc(F)c(-c4nnn[nH]4)cc32)CCC1
Response: 1.82

Request: I'd like to know its log10 IC50. The molecule in question is CC1(n2c(-c3ccc(NC(=O)C(=O)Nc4ccc(N5CCC6(CCC(CO)CC6)CC5)cc4)cc3)cc3cc(F)c(-c4nnn[nH]4)cc32)CCC1
Response: 2.06

Request: I'd like to know its log10 IC50. The molecule in question is COCC1(CO)CCN(c2ccc(NC(=O)C(=O)Nc3ccc(-c4cc5cc(F)c(-c6nnn[nH]6)cc5n4C4CCC4)cc3)cc2)CC1
Response: 1.76

Request: I'd like to know its log10 IC50. The molecule in question is CC1(n2c(-c3ccc(NC(=O)C(=O)Nc4ccc(N5CCC6(CCC(O)C6)CC5)cc4)cc3)cc3cc(F)c(-c4nnn[nH]4)cc32)CC1 (stereo not shown)
Response: 1.69

I'm hoping you can list log10 IC50 for every molecule here, please.
1. O=C(Nc1ccc(-c2cc3cc(F)c(-c4nnn[nH]4)cc3n2C2CCC2)cc1)C(=O)Nc1ccc(N2CC3(CCC(O)CC3)C2)cc1
2. Cn1cc(-c2ccc(NC(=O)C(=O)Nc3ccc(-c4cc5cc(F)c(-c6nnc(C(F)(F)F)[nH]6)cc5n4C4CCC4)cc3)cc2)cn1

Response:
1.85
2.85

* * *

Please provide measured half-life for the entries that follow.
- Assay notes: Rat PK study (IV 1 mg/kg and PO 5 mg/kg)
- Format: in vivo, male SD rats
- Conditions: male, SD, rat, plasma, 5 mg/kg; PO, dose 5 mpk; read-out: PO T1/2 (converted)
Give bare numbers, in min.

Request: I'd like to know its half-life. The compound in question is O=C(Nc1ccc(-c2cc3cc(F)c(-c4nnn[nH]4)cc3n2C2CCC2)cc1)C(=O)Nc1ccc(N2CCC(CO)CC2)cc1
Response: 190

Please turn your attention to the following entry.
Request: I'd like to know its half-life. The compound in question is CC1(n2c(-c3ccc(NC(=O)C(=O)Nc4ccc(N5CCC6(CCOC6)CC5)cc4)cc3)cc3cc(F)c(-c4nnn[nH]4)cc32)CCC1
Response: 259

* * *

- Test system: UniProtKB Q9Y2R2
- Sequence (Q9Y2R2 1-807): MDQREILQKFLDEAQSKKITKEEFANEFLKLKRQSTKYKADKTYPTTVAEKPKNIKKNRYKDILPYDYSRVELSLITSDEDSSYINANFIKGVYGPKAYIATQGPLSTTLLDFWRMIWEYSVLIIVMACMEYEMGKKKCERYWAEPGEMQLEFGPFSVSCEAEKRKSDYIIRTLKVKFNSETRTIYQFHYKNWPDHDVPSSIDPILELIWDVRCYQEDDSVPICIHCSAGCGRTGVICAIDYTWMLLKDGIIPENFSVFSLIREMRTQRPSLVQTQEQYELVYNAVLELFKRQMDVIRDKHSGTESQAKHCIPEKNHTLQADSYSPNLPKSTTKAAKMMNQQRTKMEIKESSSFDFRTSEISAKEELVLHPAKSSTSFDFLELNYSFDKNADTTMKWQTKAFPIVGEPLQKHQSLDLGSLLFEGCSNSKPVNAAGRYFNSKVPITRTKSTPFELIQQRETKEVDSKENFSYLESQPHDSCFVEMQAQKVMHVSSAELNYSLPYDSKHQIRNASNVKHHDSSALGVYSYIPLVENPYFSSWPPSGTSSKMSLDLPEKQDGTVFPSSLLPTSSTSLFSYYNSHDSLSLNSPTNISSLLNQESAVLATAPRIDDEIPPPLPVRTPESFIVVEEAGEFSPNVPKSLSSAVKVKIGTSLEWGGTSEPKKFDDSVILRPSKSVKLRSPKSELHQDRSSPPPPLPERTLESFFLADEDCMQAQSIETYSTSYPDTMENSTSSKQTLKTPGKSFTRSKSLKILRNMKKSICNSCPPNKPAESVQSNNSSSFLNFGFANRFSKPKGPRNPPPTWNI
// NB: equality with 1000 nM counts as class 0; only IC50 strictly below is class 1

Request: Please state whether IC50 is below 1000 nM for O=C(Nc1ccc(-c2ccsc2)cc1)C(=O)Nc1ccc(-c2cc3cc(F)c(-c4nnn[nH]4)cc3n2C2CCC2)cc1
Response: class 1

Request: Please state whether IC50 is below 1000 nM for O=C(Nc1ccc(-c2oc3cc(F)c(-c4nnn[nH]4)cc3c2C2CCC2)cc1)C(=O)Nc1ccc(N2CCC3(CCOC3)CC2)cc1
Response: class 0

Request: Please state whether IC50 is below 1000 nM for Cn1c(-c2cccc(NC(=O)C(=O)Nc3ccc(-c4ccsc4)cc3)c2)c(I)c2cc(C(=O)O)c(O)cc21 [Example 11a-1, reference compound]
Response: class 0

Request: Please state whether IC50 is below 1000 nM for O=C(Nc1ccc(-c2cc3cc(F)c(-c4nnn[nH]4)cc3n2C2CCC2)cc1)C(=O)Nc1ccc(N2CC3COCC3C2)cc1 (stereo not shown)
Response: class 1

Request: Please state whether IC50 is below 1000 nM for O=C(Nc1ccc(-c2cc3cc(F)c(-c4nnn[nH]4)cc3n2C2CCC2)cc1)C(=O)Nc1ccc(N2CCOCC2)cc1
Response: class 1

Request: Please state whether IC50 is below 1000 nM for O=C(Nc1ccc(-c2ccsc2)cc1)C(=O)Nc1ccc(-c2cc3ccc(-c4nnn[nH]4)nc3n2C2CCC2)cc1
Response: class 0

Please find the next molecule below.
Request: Please state whether IC50 is below 1000 nM for O=C(Nc1ccc(-c2ccsc2)cc1)C(=O)Nc1ccc(-c2cc3cnc(-c4nnn[nH]4)nc3n2C2CCC2)cc1
Response: class 1

* * *

Please provide measured pIC50 for the entries that follow.
- Test system: SHP2 enzyme (catalytic domain, amino acid sequence 224-528) (Homo sapiens, UniProt Q06124)
- Construct: purchased GenScript
- Assay notes: SHP2 enzyme inhibition assay (DiFMUP substrate, fluorescence)
- Type: biochemical
- Conditions: SHP2 catalytic domain, DiFMUP substrate, 30 min pre-incubation; read-out: S HP2 I C50
Answers are plain numbers, as −log10 of the molar value.

Request: I'd like to know its pIC50. The molecule in question is CCC1CN(c2ccc(NC(=O)C(=O)Nc3ccc(-c4cc5cc(F)c(-c6nnn[nH]6)cc5n4C4CCC4)cc3)cc2)CCO1 (centres unmarked)
Response: 7.30

Request: I'd like to know its pIC50. The molecule in question is CC1(O)CC2(CCN(c3ccc(NC(=O)C(=O)Nc4ccc(-c5cc6cc(F)c(-c7nnn[nH]7)cc6n5C5CCC5)cc4)cc3)CC2)C1
Response: 7.51

Request: I'd like to know its pIC50. The molecule in question is CC1(n2c(-c3ccc(NC(=O)C(=O)Nc4ccc(N5CCC6(CCC(O)C6)CC5)cc4)cc3)cc3cc(F)c(-c4nnn[nH]4)cc32)CCC1 (centres unmarked)
Response: 7.64

Request: I'd like to know its pIC50. The molecule in question is CC(C)(O)C1CCN(c2ccc(NC(=O)C(=O)Nc3ccc(-c4cc5cc(F)c(-c6nnn[nH]6)cc5n4CC4CC4)cc3)cc2)CC1
Response: 7.36

Please turn your attention to the following entry.
Request: I'd like to know its pIC50. The molecule in question is CC1(O)CCC2(CCN(c3ccc(NC(=O)C(=O)Nc4ccc(-c5cc6cc(F)c(-c7nnn[nH]7)cc6n5C5(C)CCC5)cc4)cc3)CC2)C1 (centres unmarked)
Response: 7.07

Hey, just so you know, these numbers are from patent EP4741383A1.
